Target: Human Lactase Phloridzin Hydrolase (hLPH) (Homo sapiens, UniProt P09848)
Construct: at confluence for 21 days prior to extraction with a Novagen ProteoExtract™ trans-membrane Protein Extraction kit; endogenous in cells; host or cells: Caco-2 cells (ATCC), 21 days at confluence; membrane protein extract desalted over G-25 Sephadex
Sequence (P09848 869-1927): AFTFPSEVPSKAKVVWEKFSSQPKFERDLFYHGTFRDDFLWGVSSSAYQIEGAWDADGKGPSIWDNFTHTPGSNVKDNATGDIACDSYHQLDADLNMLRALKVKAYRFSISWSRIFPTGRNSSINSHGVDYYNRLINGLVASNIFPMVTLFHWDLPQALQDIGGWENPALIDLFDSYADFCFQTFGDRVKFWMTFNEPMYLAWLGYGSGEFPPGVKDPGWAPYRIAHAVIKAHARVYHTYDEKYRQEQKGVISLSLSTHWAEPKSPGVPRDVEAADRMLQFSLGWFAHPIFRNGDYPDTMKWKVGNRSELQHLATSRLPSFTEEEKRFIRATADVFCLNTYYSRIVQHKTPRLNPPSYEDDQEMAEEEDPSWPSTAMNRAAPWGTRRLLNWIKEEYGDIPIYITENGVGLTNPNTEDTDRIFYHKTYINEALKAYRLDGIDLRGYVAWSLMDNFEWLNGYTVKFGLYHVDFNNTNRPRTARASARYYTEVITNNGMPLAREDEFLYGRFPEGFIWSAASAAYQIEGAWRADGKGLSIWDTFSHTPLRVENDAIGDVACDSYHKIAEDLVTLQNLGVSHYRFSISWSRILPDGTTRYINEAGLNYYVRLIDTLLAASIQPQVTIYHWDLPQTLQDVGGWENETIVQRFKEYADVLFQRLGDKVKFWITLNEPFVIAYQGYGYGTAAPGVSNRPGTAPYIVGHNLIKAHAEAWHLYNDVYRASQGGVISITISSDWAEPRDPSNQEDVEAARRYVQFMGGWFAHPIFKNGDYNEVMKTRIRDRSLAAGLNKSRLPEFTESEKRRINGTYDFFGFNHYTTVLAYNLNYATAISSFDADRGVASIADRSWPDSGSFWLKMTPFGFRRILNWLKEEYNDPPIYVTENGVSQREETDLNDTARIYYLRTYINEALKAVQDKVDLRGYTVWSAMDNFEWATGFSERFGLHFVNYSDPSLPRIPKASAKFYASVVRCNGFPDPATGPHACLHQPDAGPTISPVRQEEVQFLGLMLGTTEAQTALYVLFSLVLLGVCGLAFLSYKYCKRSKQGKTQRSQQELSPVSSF
Assay: hLPH enzyme assay (glucoside hydrolysis by LPH extract)
Type: in vitro ADME
Details: glucoside 1.0 mM, 10% LPH extract (Caco2), 1 hour, 37° C., pH 6.0
So I've got a bunch of molecules here, and I need their μM substrate hydrolysed/hr values.

Q: Value lookup for μM substrate hydrolysed/hr; key = O=C(CCc1ccc(O)cc1)c1c(O)cc(O)cc1O[C@@H]1O[C@H](CO)[C@@H](O)[C@H](O)[C@H]1O [Phloridzin, reference compound]
Result: 0.507 μM substrate hydrolysed/hr

Q: Value lookup for μM substrate hydrolysed/hr; key = O=c1c(O)c(-c2ccc(O)cc2)oc2cc(O[C@@H]3O[C@H](CO)[C@@H](O)[C@H](O)[C@H]3O)cc(O)c12 [Kaempferol 7-O-glucoside]
Result: 0.618 μM substrate hydrolysed/hr

Q: Value lookup for μM substrate hydrolysed/hr; key = O=c1cc(-c2ccc(O)cc2)oc2c([C@@H]3O[C@H](CO)[C@@H](O)[C@H](O)[C@H]3O)c(O)cc(O)c12 [Apigenin-8-C-glucoside]
Result: 0.685 μM substrate hydrolysed/hr

Q: Value lookup for μM substrate hydrolysed/hr; key = O=c1cc(-c2ccc(O)c(O)c2)oc2cc(O[C@@H]3O[C@H](CO)[C@@H](O)[C@H](O)[C@H]3O)cc(O)c12 [Luteolin-7-glucoside]
Result: 0.814 μM substrate hydrolysed/hr

====

Molecular target: GLUT2 (Homo sapiens, UniProt P11168)
Sequence (P11168 1-524): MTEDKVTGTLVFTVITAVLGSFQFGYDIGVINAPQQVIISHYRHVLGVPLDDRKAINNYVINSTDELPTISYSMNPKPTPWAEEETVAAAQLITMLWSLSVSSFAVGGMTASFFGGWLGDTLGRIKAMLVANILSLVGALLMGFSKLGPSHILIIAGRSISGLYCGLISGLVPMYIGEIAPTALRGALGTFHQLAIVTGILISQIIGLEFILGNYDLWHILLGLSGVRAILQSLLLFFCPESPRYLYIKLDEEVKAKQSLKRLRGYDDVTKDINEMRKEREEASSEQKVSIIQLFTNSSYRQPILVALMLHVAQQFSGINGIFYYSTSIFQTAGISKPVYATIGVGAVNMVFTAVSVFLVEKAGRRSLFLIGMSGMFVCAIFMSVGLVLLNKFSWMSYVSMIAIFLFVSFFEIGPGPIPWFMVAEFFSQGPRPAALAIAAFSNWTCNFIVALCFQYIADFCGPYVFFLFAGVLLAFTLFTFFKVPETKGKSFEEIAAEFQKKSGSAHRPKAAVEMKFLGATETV
Assay: Glucose transport inhibitor cell screening assay, 25 mM D-glucose for 30 minutes
Details: 25 mM D-glucose, 30 minutes, actives at 150 uM, differentiated Caco-2 monolayer
Label rule, in plain words: % Glucose Transport inhibition 25 mM of 10% and up is Condition met, under 10% is Condition not met.

Q: # check: % Glucose Transport inhibition 25 mM of O=c1cc(-c2ccc(O)cc2)oc2cc(OC3O[C@H](CO)[C@@H](O)[C@H](O)[C@H]3O)cc(O)c12 (stereo partly drawn) [Apigenin-7-glucoside] is greater than or equal to 10%
Result: Condition met

Q: # check: % Glucose Transport inhibition 25 mM of O=c1cc(-c2ccc(O)cc2)oc2c([C@@H]3O[C@H](CO)[C@@H](O)[C@H](O)[C@H]3O)c(O)cc(O)c12 [Apigenin-8-C-glucoside] is greater than or equal to 10%
Result: Condition not met

Q: # check: % Glucose Transport inhibition 25 mM of COc1cc(-c2[o+]c3cc(O)cc(O)c3cc2O[C@@H]2O[C@H](CO)[C@@H](O)[C@H](O)[C@H]2O)cc(OC)c1O [Malvidin-3-O-glucoside] is greater than or equal to 10%
Result: Condition met

Q: # check: % Glucose Transport inhibition 25 mM of `Oc1cc(O)c2cc(O)c(-c3cc(O)c(O)c(O)c3)[o+]c2c1` is greater than or equal to 10%
Result: Condition met

Q: # check: % Glucose Transport inhibition 25 mM of O=c1cc(-c2ccc(O)c(O)c2)oc2cc(O[C@@H]3O[C@H](CO)[C@@H](O)[C@H](O)[C@H]3O)cc(O)c12 [Luteolin-7-glucoside] is greater than or equal to 10%
Result: Condition met

Q: # check: % Glucose Transport inhibition 25 mM of O=c1c(O)c(-c2ccc(O)cc2)oc2cc(O[C@@H]3O[C@H](CO)[C@@H](O)[C@H](O)[C@H]3O)cc(O)c12 [Kaempferol 7-O-glucoside] is greater than or equal to 10%
Result: Condition met

====

Target: GLUT2 (Homo sapiens, UniProt P11168)
Experiment: Glucose transport inhibitor cell screening assay, 25 mM D-glucose for 30 minutes
Conditions: 25 mM D-glucose, 30 minutes, actives at 150 uM, differentiated Caco-2 monolayer
quantity.kind: % Glucose Transport inhibition 25 mM (%)
Give your result in % as a bare value.

Q: Value lookup for % Glucose Transport inhibition 25 mM; key = O=C1C[C@@H](c2ccc(O)c(O)c2)Oc2cc(O[C@@H]3O[C@H](CO)[C@@H](O)[C@H](O)[C@H]3O)cc(O)c21 [Eriodictyol-7-O-glucoside]
Result: 4.98

Q: Value lookup for % Glucose Transport inhibition 25 mM; key = COc1cc(-c2[o+]c3cc(O)cc(O)c3cc2O[C@@H]2O[C@H](CO)[C@H](O)[C@H](O)[C@H]2O)cc(OC)c1O [Malvidin 3-O-Galactoside]
Result: 10.41

Q: Value lookup for % Glucose Transport inhibition 25 mM; key = O=c1c(-c2ccc(O)cc2)coc2cc(O[C@@H]3O[C@H](CO)[C@@H](O)[C@H](O)[C@H]3O)ccc12 [Daidzein-7-glucoside]
Result: 7.23

Q: Value lookup for % Glucose Transport inhibition 25 mM; key = O=C1CC(c2ccc(O)cc2)Oc2cc(O[C@@H]3O[C@H](CO)[C@@H](O)[C@H](O)[C@H]3O)cc(O)c21 (stereo partly shown) [Naringenin-7-O-glucoside]
Result: 0.06

====

Test system: SGLT1
Assay: Glucose transport inhibitor cell screening assay, 5 mM D-glucose for 15 minutes
Details: 5 mM D-glucose, 15 minutes, actives at 300 uM, differentiated Caco-2 monolayer
So I've got a bunch of molecules here, and I need their % Glucose Transport inhibition 5 mM values.
Give your result in % as a bare value.

Q: Value lookup for % Glucose Transport inhibition 5 mM; key = `Oc1cc(O)cc(/C=C/c2ccc(O)c(O)c2)c1`
Result: 89.28

Q: Value lookup for % Glucose Transport inhibition 5 mM; key = O=c1c(O)c(-c2ccc(O)cc2)oc2cc(O[C@@H]3O[C@H](CO)[C@@H](O)[C@H](O)[C@H]3O)cc(O)c12 [Kaempferol 7-O-glucoside]
Result: 43.89

Q: Value lookup for % Glucose Transport inhibition 5 mM; key = `COc1cc(/C=C/c2ccc(O)cc2)cc(OC)c1`
Result: 18.44

Q: Value lookup for % Glucose Transport inhibition 5 mM; key = `Oc1ccc(C=Cc2cc(O)cc(O)c2)cc1`
Result: 76.07

Q: Value lookup for % Glucose Transport inhibition 5 mM; key = O=c1cc(-c2ccc(O)c(O)c2)oc2cc(O[C@@H]3O[C@H](CO)[C@@H](O)[C@H](O)[C@H]3O)cc(O)c12 [Luteolin-7-glucoside]
Result: 44.09

Q: Value lookup for % Glucose Transport inhibition 5 mM; key = O=c1cc(-c2ccc(O)cc2)oc2c([C@@H]3O[C@H](CO)[C@@H](O)[C@H](O)[C@H]3O)c(O)cc(O)c12 [Apigenin-8-C-glucoside]
Result: 33.84

Q: Value lookup for % Glucose Transport inhibition 5 mM; key = `Oc1ccc(-c2[o+]c3cc(O)cc(O)c3cc2O)cc1`
Result: 4.07

Q: Value lookup for % Glucose Transport inhibition 5 mM; key = `COc1cc(-c2[o+]c3cc(O)cc(O)c3cc2O)cc(OC)c1O`
Result: 14.21

Q: Value lookup for % Glucose Transport inhibition 5 mM; key = `Oc1cc(O)c2cc(O)c(-c3ccc(O)c(O)c3)[o+]c2c1`
Result: 7.93

Q: Value lookup for % Glucose Transport inhibition 5 mM; key = O=c1c(-c2ccc(O)cc2)coc2cc(O[C@@H]3O[C@H](CO)[C@@H](O)[C@H](O)[C@H]3O)ccc12 [Daidzein-7-glucoside]
Result: 35.03
